Numbers sourced from patent US10329243B2.

Test system: MDA
Method description: MDA determination, cerebral ischemic reperfusion MCAO model
Assay type: in vivo, SD rats
Applied conditions: ischemic reperfusion MCAO rats; 40 mg/kg intravenously 30 min before and 12 h after reperfusion; serum, 24 h after reperfusion
Method: Rats were intraperitoneally injected with 10% chloral hydrate 350 mg/kg after anesthesia and opened up at the center of the neck in accordance with the Zea Longa modified method. The right common carotid artery was separated, and the right external carotid artery branches was ligated. […] SOD and MDA were determined strictly in accordance with instructions of the kit.
Each entry below carries its recorded MDA CONTENT.
Endpoint name: MDA CONTENT (mmol/mL)

[[record]]
molecule = "CC(=O)Oc1c(C(C)C)cc(-c2cc(C(C)C)c(OC(C)=O)c(C(C)C)c2)cc1C(C)C [Example 2 group]"
endpoint_name = "MDA CONTENT"
data_value = 5.44

[[record]]
molecule = "CC(C)c1cc(-c2cc(C(C)C)c(C(=O)O)c(C(C)C)c2)cc(C(C)C)c1O [Example 8 group]"
endpoint_name = "MDA CONTENT"
data_value = 5.12

[[record]]
molecule = "CC(=O)OC(C)Oc1c(C(C)C)cc(-c2cc(C(C)C)c(O)c(C(C)C)c2)cc1C(C)C (stereo not shown) [Example 12 group]"
endpoint_name = "MDA CONTENT"
data_value = 5.37

[[record]]
molecule = "CCCc1cc(-c2cc(CCC)c(O)c(C(C)C)c2)cc(C(C)C)c1O [Example 6 group]"
endpoint_name = "MDA CONTENT"
data_value = 4.26

[[record]]
molecule = "CCCc1cc(-c2cc(CCC)c(O)c(CCC)c2)cc(CCC)c1O [Example 7 group]"
endpoint_name = "MDA CONTENT"
data_value = 4.97

[[record]]
molecule = "CC(C)c1cc(-c2cc(C(C)C)c(OC(=O)C(N)C(C)C)c(C(C)C)c2)cc(C(C)C)c1O (stereo not shown) [Example 11 group]"
endpoint_name = "MDA CONTENT"
data_value = 4.92

[[record]]
molecule = "CC(C)c1cc(-c2cc(C(C)C)c(OC(=O)CCC(=O)O)c(C(C)C)c2)cc(C(C)C)c1O [Example 5 group]"
endpoint_name = "MDA CONTENT"
data_value = 4.47


###

Tested on: TNF-α
Method description: Determination of TNF-α in brain tissue homogenate, permanent cerebral ischemia model
Assay type: in vivo, SD rats
Applied conditions: permanent cerebral ischemia model rats; 40 mg/kg intravenously; 10% brain tissue homogenate, 24 h after the embolism
Endpoint name: TNF-α content (ng/mL)

[[record]]
compound = "CC(=O)Oc1c(C(C)C)cc(-c2cc(C(C)C)c(OC(C)=O)c(C(C)C)c2)cc1C(C)C [Example 2 group]"
endpoint_name = "TNF-α content"
data_value = 5.15

[[record]]
compound = "CC(C)c1cc(-c2cc(C(C)C)c(OC(=O)CCC(=O)O)c(C(C)C)c2)cc(C(C)C)c1O [Example 5 group]"
endpoint_name = "TNF-α content"
data_value = 5.23

[[record]]
compound = "CCCc1cc(-c2cc(CCC)c(O)c(C(C)C)c2)cc(C(C)C)c1O [Example 6 group]"
endpoint_name = "TNF-α content"
data_value = 4.99

[[record]]
compound = "CC(C)c1cc(-c2cc(C(C)C)c(C(=O)O)c(C(C)C)c2)cc(C(C)C)c1O [Example 8 group]"
endpoint_name = "TNF-α content"
data_value = 4.39

[[record]]
compound = "CC(C)c1cc(-c2cc(C(C)C)c(OC=O)c(C(C)C)c2)cc(C(C)C)c1O [Example 10 group]"
endpoint_name = "TNF-α content"
data_value = 5.05

[[record]]
compound = "CC(=O)OC(C)Oc1c(C(C)C)cc(-c2cc(C(C)C)c(O)c(C(C)C)c2)cc1C(C)C (centres unmarked) [Example 12 group]"
endpoint_name = "TNF-α content"
data_value = 5.38

[[record]]
compound = "CCCc1cc(-c2cc(CCC)c(O)c(CCC)c2)cc(CCC)c1O [Example 7 group]"
endpoint_name = "TNF-α content"
data_value = 4.26

[[record]]
compound = "CC(C)c1cc(-c2cc(C(C)C)c(OC(=O)C(N)C(C)C)c(C(C)C)c2)cc(C(C)C)c1O (centres unmarked) [Example 11 group]"
endpoint_name = "TNF-α content"
data_value = 5.16

